# Test system: wheat germ agglutinin (Triticum aestivum), Alexa647-labelled
# ASSAY METHOD TEXT: wheat germ agglutinin binders on compound microarrays, profiling panel, artefact control for SMM control-protein annotation, biochemical, small-molecule microarray, 635/667 nm fluorescence (AID 1140);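 also: score merges 667 nm feature emission with signal to noise over triplicate slides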
# RUN PARAMETERS: WGA-A647 binding, 635 nm fluorescence, higher = more signal
param class (str): category from composite z-score; see ranges Low = under -0.2, Mid = from -0.2 up to 1, High = 1 and over

[[record]]
molecule = "C=CC[C@]1(C(N)=O)N=C(c2ccc(OCCCO)cc2)O[C@H]1c1ccccc1CN=[N+]=[N-]"
classification = "High"

[[record]]
molecule = "O=C1C2C=CC(C(O)C#Cc3ccccc3)N(Nc3ccccc3)C2C(=O)N1c1ccccc1 (stereo not given)"
classification = "High"

[[record]]
molecule = "C=CC[C@]1(C(=O)NCC(O)CO)N=C(c2ccc(OCCCO)cc2)O[C@H]1c1ccccc1 (stereo not given in full)"
classification = "Mid"

[[record]]
molecule = "C/C(=N\\O)C(=O)NCCCCCNC(=O)OCc1ccccc1"
classification = "Mid"

[[record]]
molecule = "COC(=O)Cn1c(C(=O)N2CCCC2)cc2c1C[C@H]1CN(C(=O)c3ccccc3)[C@@](Cc3ccccc3)(C(=O)OC)[C@@H]21"
classification = "High"

[[record]]
molecule = "COC(=O)C(CC#Cc1ccc2c(c1)[C@]1(C(=O)N2)[C@H](C(=O)N2CCCCCCC2)[C@H]2C(=O)O[C@H](c3ccccc3)[C@H](c3ccccc3)N2[C@@H]1c1ccc(O)cc1)C(=O)OC"
classification = "Low"

[[record]]
molecule = "CO[C@H]1COC(=O)CC=C[C@H](C)COC(=O)[C@@H](OCc2ccccc2)C=C[C@@H]1C"
classification = "Low"

[[record]]
molecule = "CC/C=C/C(=O)N(C[C@@H]1CCCO1)[C@@H]1CC(C(=O)NCCO)=C[C@H](Oc2c(I)cc(CO)cc2OC)[C@H]1O"
classification = "Mid"

[[record]]
molecule = "C#C[C@H](O[Si](C#Cc1ccccc1)(C(C)C)C(C)C)c1ccccc1"
classification = "Low"

[[record]]
molecule = "CO[C@H]1COC(=O)CC=C[C@H](C)[C@@H](OC)COC(=O)[C@H](Cc2ccccc2)NC(=O)CC=C[C@@H]1C"
classification = "Low"

[[record]]
molecule = "CO[C@H]1COC(=O)[C@H](CCSC)NC(=O)CC=C[C@@H](C)COC(=O)[C@@H](OCc2ccccc2)C=C[C@@H]1C"
classification = "Low"

[[record]]
molecule = "Cc1ccc(N2C(=O)c3ccccc3[C@@H](C(=O)NCC(F)(F)F)[C@@H]2c2ccc(CO)cc2)nc1"
classification = "Low"

[[record]]
molecule = "C=C(COC)/C(=C/C[C@H](OC(C)=O)c1ccc(OCCO)cc1)c1cnc2ccccc2c1"
classification = "High"

[[record]]
molecule = "COC(=O)C1=CC(c2ccc(CO)cc2)=CC(C2CC2)N(Cc2sc3ccccc3c2Cl)C=C1C(=O)OC (stereo not given)"
classification = "High"

[[record]]
molecule = "CCCC[C@@H]1C[C@H]1[C@@H](NC(=O)c1ccccc1)c1ccccc1C(F)(F)F"
classification = "High"

[[record]]
molecule = "CN1C(=O)C2C=CC(C(O)c3ccc(N(C)C)cc3)N(Nc3ccc([N+](=O)[O-])cc3[N+](=O)[O-])C2C1=O (stereo not given)"
classification = "High"

[[record]]
molecule = "CCC1=C2CN(Cc3ccccc3Br)[C@@H]([C@@H](O)Cc3ccccc3)C2C=CCC1 (stereo not given in full)"
classification = "Mid"

[[record]]
molecule = "CCCN1C(=O)[C@@]2(CCS(=O)(=O)c3ccccc3)N=C(c3ccc(OCCCO)cc3)O[C@H]2c2ccccc21"
classification = "Mid"

[[record]]
molecule = "O=C1OCCC=C[C@H]2OC34C=CCN(Cc5ccccc5)C(=O)[C@H]3N(CCO)C(=O)[C@@H]4C12 (stereo not given in full)"
classification = "Low"

[[record]]
molecule = "COC(=O)[C@@]1(Cc2ccccc2N=[N+]=[N-])N=C(c2ccc(OCCCO)cc2)O[C@H]1c1ccccc1CN=[N+]=[N-]"
classification = "Mid"

[[record]]
molecule = "CC(C)[Si]1(C(C)C)O[C@@H](c2ccccc2)c2cc(C3CC3)nc(-c3ccc(Oc4ccccc4)cc3)c21"
classification = "Low"

[[record]]
molecule = "C[C@@H]1CC[C@H]2C(=O)N3[C@@H](CC[C@@H](C)[C@@H]3c3cccc(N4CCOCC4)c3)C(=O)N2[C@H]1c1cccc(N2CCOCC2)c1"
classification = "Mid"

[[record]]
molecule = "CCC(=O)[C@]12O[C@@]3([C@@H]4C(=O)OCC[C@@H]41)N(Cc1ccccc1)C(C)=C(C(=O)OC)[C@@H](c1ccccc1)N3C2=O"
classification = "Low"

[[record]]
molecule = "N#Cc1ccc(NN2C(C(O)c3ccc(I)cc3)C=CC3C(=O)N(c4ccccc4)C(=O)C32)cc1 (stereo not given)"
classification = "High"

[[record]]
molecule = "C=CCNC(=O)[C@H]1[C@@H]2C(=O)O[C@@H](c3ccccc3)[C@@H](c3ccccc3)N2[C@@H](c2ccccc2OCCO)[C@]12C(=O)N(C(=O)OCCOC)c1ccc(C#CCC(C(=O)OC)C(=O)OC)cc12"
classification = "High"

[[record]]
molecule = "CCOC(=O)C[C@H]1[C@H](OC(=O)Cc2ccc3c(c2)OCO3)[C@@H](NC(=O)c2ccc3ccccc3c2)c2cc(OCCCO)ccc2N1C(=O)Cc1ccc(OC)cc1"
classification = "Mid"

[[record]]
molecule = "C[C@H]1COC(=O)[C@H](Cc2ccccc2)NC(=O)[C@@H](C)COC(=O)[C@H](Cc2ccccc2)NC1=O"
classification = "Mid"

[[record]]
molecule = "CO[C@@H]1COC(=O)[C@@H]2CCCN2C(=O)CC=C[C@@H](C)[C@H](OC)COC(=O)[C@@H]2CCCN2C(=O)CC=C[C@H]1C"
classification = "Low"

[[record]]
molecule = "O=C1C[C@@](C(=O)NCCN2CCOCC2)(c2ccc([N+](=O)[O-])cc2)[C@@H](c2ccc(CO)cc2)N1C1CCCCC1"
classification = "Mid"


----------
# composite z-score per entry
# ASSAY METHOD TEXT: small-molecule microarray binders of probe aDKK1, primary screen, biochemical, biotinylated probe, 635/667 nm fluorescence (AID 1099);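 also: score merges 667nm spot fluorescence with signal to noise across triplicate slides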
# RUN PARAMETERS: higher = more signal
REPORTED PROPERTY: composite z-score

[[record]]
smi = "C=C(COC)/C(=C/C[C@@H](OC(=O)c1ccncc1)c1ccc(OCCO)cc1)c1cc(C(=O)OC)ccc1OC"
test_result = 0.318

[[record]]
smi = "Cc1ccc(S(=O)(=O)N[C@H]2COC(=O)CC=C[C@H](C)COC(=O)N[C@@H](C)C(=O)CC=C[C@@H]2C)cc1"
test_result = -0.589

[[record]]
smi = "CCC(=O)[C@]12O[C@@]3([C@@H]4C(=O)OCC[C@@H]41)N(CC)C(C)=C(C(=O)OC)[C@@H](c1ccccc1)N3C2=O"
test_result = -0.41

[[record]]
smi = "COCCOC(=O)N1C(=O)[C@@]2(c3cc(C#CC4=CCCCC4)ccc31)[C@H](C(=O)NC[C@H](O)c1ccccc1)[C@H]1C(=O)O[C@H](c3ccccc3)[C@H](c3ccccc3)N1[C@@H]2c1ccc(OCCO)cc1"
test_result = -0.18

[[record]]
smi = "CCN1C(C)=C(C(=O)OC)[C@@H](c2ccccc2)N2C(=O)[C@@]3(C(=O)OC)O[C@@]12[C@@H]1C(=O)N(C)C(=O)[C@@H]13"
test_result = -0.0561

[[record]]
smi = "CC(C)CN1C(=O)[C@@]2(Cc3ccccc31)c1ccccc1C(=O)N(C1CCCCC1)[C@H]2c1ccc(CO)cc1"
test_result = 0.262

[[record]]
smi = "C=C(CCCC)/C(=C/C[C@H](OC(=O)c1ccncc1)c1cccc(OCCO)c1)c1cc(C(=O)OC)ccc1OC"
test_result = -0.166


----------
# EXPERIMENTAL SYSTEM: Dihydroorotate dehydrogenase (quinone), mitochondrial (Plasmodium falciparum (isolate 3D7)) (UniProt Q08210)
# Sequence (Q08210 whole entry, looked up): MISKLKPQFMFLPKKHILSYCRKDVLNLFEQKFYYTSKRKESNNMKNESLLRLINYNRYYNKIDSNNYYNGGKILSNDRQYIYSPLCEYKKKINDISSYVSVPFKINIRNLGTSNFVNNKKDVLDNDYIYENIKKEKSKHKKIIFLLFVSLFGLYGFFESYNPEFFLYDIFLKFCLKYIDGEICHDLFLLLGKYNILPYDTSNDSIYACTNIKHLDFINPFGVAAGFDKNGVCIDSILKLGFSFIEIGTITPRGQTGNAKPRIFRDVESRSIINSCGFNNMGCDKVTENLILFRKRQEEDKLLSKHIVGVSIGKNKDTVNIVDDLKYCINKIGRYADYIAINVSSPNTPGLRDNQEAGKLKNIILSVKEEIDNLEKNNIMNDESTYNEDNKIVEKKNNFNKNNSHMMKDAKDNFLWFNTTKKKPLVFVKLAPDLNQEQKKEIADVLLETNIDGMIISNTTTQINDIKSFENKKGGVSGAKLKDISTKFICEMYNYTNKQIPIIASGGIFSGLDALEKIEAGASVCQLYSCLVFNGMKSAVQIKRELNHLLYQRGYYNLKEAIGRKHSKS
# ASSAY METHOD TEXT: PfDHODH enzyme inhibitors, primary screen, biochemical, C-terminal His tag, absorbance 600 nm (AID 1175);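 also: recombinant parasite enzyme with a five histidine tag at its C terminus; test concentration not given here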
# RUN PARAMETERS: DCIP absorbance 600 nm, higher = more signal, called active from +8 up or from −8 down
The source made the active and inactive calls.
REPORTED PROPERTY: composite z-score

[[record]]
compound = "COc1ccc(-c2cc3c(c(-c4ccccc4)n2)[Si](C(C)C)(C(C)C)O[C@H]3c2ccccc2)cn1"
test_result = "-0.349 (inactive)"

[[record]]
compound = "COc1cc2c(cc1OC)CN(C(=O)[C@H]1[C@@H]3C(=O)O[C@@H](c4ccccc4)[C@@H](c4ccccc4)N3[C@@H](c3ccc(O)cc3)[C@]13C(=O)Nc1ccc(C#CC4(O)CCCCCC4)cc13)CC2"
test_result = "-0.543 (inactive)"

[[record]]
compound = "CC(C)N1CC=CC23O[C@@H]4/C=C\\CCCOC(=O)C4[C@H]2C(=O)N(CCO)[C@@H]3C1=O (stereo not given in full)"
test_result = "-1.71 (inactive)"

[[record]]
compound = "C=C(COC)C(=O)CC[C@H](OC(=O)c1ccccc1-c1ccccc1C(=O)O)c1cccc(OCCO)c1"
test_result = "-6.66 (inactive)"

[[record]]
compound = "CC(C)C[C@@H]1NC(=O)[C@H](CC(C)C)NC(=O)[C@@]23C(=O)N[C@@H](Cc4ccccc4)C2[C@H](C)[C@@]2(C)O[C@H]2C3/C=C/CC/C=C/CNC1=O (stereo not given in full)"
test_result = "-0.744 (inactive)"

[[record]]
compound = "COCCOC(=O)N1C(=O)[C@@]2(c3cc(C#CCCO)ccc31)[C@H](C(=O)N1CCCCCCC1)[C@H]1C(=O)O[C@H](c3ccccc3)[C@H](c3ccccc3)N1[C@@H]2c1ccc(O)cc1"
test_result = "0.138 (inactive)"

[[record]]
compound = "CC(=O)Nc1ccc([C@H]2[C@H](C)CC[C@H]3C(=O)N4[C@@H](CC[C@@H](C)[C@@H]4c4ccc(NC(C)=O)cc4)C(=O)N32)cc1"
test_result = "0.124 (inactive)"

[[record]]
compound = "CCC#CCN(Cc1ccccc1Br)[C@H](/C=C/c1ccccc1)[C@@H](O)Cc1ccccc1"
test_result = "0.514 (inactive)"

[[record]]
compound = "CCCC=C(CCC)[C@@H](NC(=O)c1ccc(C(F)(F)F)cc1)c1ccccc1"
test_result = "-3.63 (inactive)"

[[record]]
compound = "CO[C@H]1COC(=O)[C@H](C)NC(=O)CC=C[C@@H](C)[C@H](NS(=O)(=O)c2ccc(C)cc2)COC(=O)[C@@H](OCc2ccccc2)C=C[C@@H]1C"
test_result = "0.604 (inactive)"

[[record]]
compound = "C=C(C(=O)CC[C@H](OC(=O)c1ccccc1-c1ccccc1C(=O)O)c1ccc(CO)o1)C(C)C"
test_result = "-0.976 (inactive)"

[[record]]
compound = "CCN1C(C)=C(C(=O)OC)[C@@H](c2ccccc2)N2C(=O)[C@](O)(C(=O)OC)[C@@H](c3ccccc3)C(C(C)=O)=C12"
test_result = "-5.15 (inactive)"

[[record]]
compound = "O=C/C=C/c1ccccc1Cl"
test_result = "-0.516 (inactive)"

[[record]]
compound = "CCCNC(=O)[C@@]1(Sc2ccc(C)cc2)CC(=O)N(Cc2ccccc2Cl)[C@@H]1c1ccc(CO)cc1"
test_result = "-3.67 (inactive)"

[[record]]
compound = "C=CC(=O)O[C@@H](Cc1ccccc1)[C@H]1C2C=CCCC=C2CN1Cc1cccc(Cl)c1 (stereo not given in full)"
test_result = "0.566 (inactive)"

